# Test system: SNB-19
# PROTOCOL_DESCRIPTION: NCI tumour cell line growth inhibition, 48 h
Active and inactive are the calls of the source. No stated cut-off is given here; in the data, active = GI50 up to about 1.1 µM and inactive = higher.
API: response.call in 1 for active, -1 for inactive

S=c1[nH]nc(COc2ccc3c(c2)CCCC3)n1/N=C/c1ccc(Cl)cc1 : -1
C=CCCCCCCCCCP(=O)(c1ccccc1)c1ccc2c(c1)OCCOCCOCCOCCO2 (stereo not given) : -1
O=C1C(Cl)=C(NCCN2CCOCC2)C(=O)c2c(O)ccc(O)c21 : -1
COc1ccc2c(c1OC)C(=O)O[C@@H]2[C@H]1c2cc3c(cc2CCN1C)OCO3 : -1
CCN(CC)CC(C(=O)Nc1c(C)cccc1C)/C(C)=N\NC(=O)C[N+](C)(C)C (stereo not given) : -1

Req: For CCOP(=O)(OCC)C1CCCCOC1=O (stereo not given) , which call appears in the assay record?
Resp: -1

Req: Repeat for the following compound: CCOC(=O)/C=C(\N=P(c1ccccc1)(c1ccccc1)c1ccccc1)C(F)(F)C(F)(F)C(F)(F)C(F)(F)C(F)(F)F
Resp: -1

Req: Repeat for the following compound: COC(=O)C1(NC(=O)C(CC(=O)OCc2ccccc2)NC(=O)OCc2ccccc2)CCCCCCC1 (stereo not given)
Resp: -1

Req: Repeat for the following compound: CN1CCN(CCNc2ccc(CO)c3sc4ccccc4c(=O)c23)CC1
Resp: -1

Req: Repeat for the following compound: CC[P+](C#Cc1ccccc1)(c1ccccc1)c1ccccc1
Resp: -1
